molecular target: UniProtKB P05164; conditions: read-out: Azide anion IC50; Amplex Red 20 µM, MPO 1.2 nM, H2O2 10 µM, no NaCl, pH 7.4; listed as N3^–
observed property: IC50 (nM)
Provide only the numeric value, understood in nM.

Requested field: IC50. Item: [N-]=[N+]=[N-] [Azide anion, sodium azide] 1000

---

molecular target: MPO (Homo sapiens); details: read-out: recommended average IC50 value; average of CBA, FLBA and NBD-TM probes
Sequence (P05164 279-745 limits assumed): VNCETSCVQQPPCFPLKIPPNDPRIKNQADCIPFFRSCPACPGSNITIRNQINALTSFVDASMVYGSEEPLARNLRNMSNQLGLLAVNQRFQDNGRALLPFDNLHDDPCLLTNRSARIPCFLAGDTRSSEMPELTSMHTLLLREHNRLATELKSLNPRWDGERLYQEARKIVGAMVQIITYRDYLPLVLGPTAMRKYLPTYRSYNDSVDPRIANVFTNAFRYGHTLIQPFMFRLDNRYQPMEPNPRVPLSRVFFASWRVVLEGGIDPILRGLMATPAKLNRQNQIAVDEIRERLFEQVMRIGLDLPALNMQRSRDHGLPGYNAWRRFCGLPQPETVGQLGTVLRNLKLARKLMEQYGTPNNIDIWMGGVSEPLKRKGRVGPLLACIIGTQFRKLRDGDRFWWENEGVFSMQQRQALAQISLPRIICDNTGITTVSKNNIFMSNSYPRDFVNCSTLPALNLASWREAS
Sequence (P05164 165-273 limits assumed): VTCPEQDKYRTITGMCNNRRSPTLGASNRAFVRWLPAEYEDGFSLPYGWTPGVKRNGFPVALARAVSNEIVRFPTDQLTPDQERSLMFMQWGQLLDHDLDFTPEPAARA
observed property: IC50 (nM)
Answer with a number only, understood to be in nM.

# query: IC50 of entry [N-]=[N+]=[N-] [Azide anion, sodium azide] 700
